Hello, the source for this data is paper PMC4865845, in case you need it.

System: CHIKV
Type: cell-based, chikungunya virus
measurement.name: Score_si2
No unit in the answer, please; the number alone is enough.

As a guide, the following entries are already answered.
- substance: "Hs_KIAA0674_2 (sense CCCGGCAACATAACACTGAAA; chemistry not given here)"
  Score_si2: 1.52
- substance: "Hs_NPEPL1_2 (CACCTTCCTCGAGGAGATTAA; chemistry not given here)"
  Score_si2: 1.71
- substance: "Hs_COPS2_1 (sense CACGATATACTGCACTAGATA; chemistry not given here)"
  Score_si2: 1.3
- substance: "Hs_PITRM1_3 (CAGCGTTGAAAGTTTCCGATA; chemistry not given here) [reference compound]"
  Score_si2: -1.16
- substance: "s16047 (GAACCCATATTATTAGTGA; chemistry not given here) [reference compound]"
  Score_si2: -0.72

Exercise: Quick check: Score_si2 of Hs_CDC25A_1 (sense AAGGCGCTATTTGGCGCTTCA; chemistry not given here) ?
Solution: 1.56

Exercise: Follow-up entry: s37917 (GCCTCAGCTCAAACTCAAA; chemistry not given here)
Solution: 1.72

Exercise: Next: s6126 (sense GAATGCTCCTTTACCAGAA; chemistry not given here)
Solution: 0.75

---

System: CHIKV
Format: cell-based, chikungunya virus
Score_si1 listing for selected substances.
# output: bare number, no unit

Exercise: Item under review: Hs_EZH2_6 (CAGGATGGTACTTTCATTGAA; chemistry not given here) . Reported Score_si1?
Solution: 1.77

Exercise: # repeat for Hs_TADA3L_2 (sense ACCGACTGGCAGGATAAGAAA; chemistry not given here) [reference compound]
Solution: -1.99

Exercise: Could you do the same for Hs_PCBP1_2 (TAAGAGTGGAATGTTAATAAA; chemistry not given here) , please?
Solution: 1.94

Exercise: Also, Hs_KIAA0674_1 (sense CCGGAAACAACTGGAACTCAA; chemistry not given here) please.
Solution: 1.96

Exercise: // next record Hs_HSPE1_6 (sense GAGGGAGTAATGGCAGGACAA; chemistry not given here)
Solution: 2.37

Exercise: Also, Hs_COPS2_3 (sense ATGAATAGATATAAGCAGCTA; chemistry not given here) please.
Solution: 2.07

Exercise: Now try s36691 (CAGATGTTATGGATATAAT; chemistry not given here) [reference compound] .
Solution: -1.07

Exercise: Also Hs_ZBTB24_2 (CAGCATGTGTCTGTAATTGTA; chemistry not given here) ?
Solution: 2.57

---

Test system: CHIKV
Format: cell-based, chikungunya virus
Hi! Just check whether Score_si4 is below 0.4. Below gives T, equal or above gives F.

- substance: "s18074 (CCTCGAGACTATACGGTTA; chemistry not given here) [reference compound]"
  group.label: "T"
- substance: "s34429 (CTCCTGCCTTGAGCCCTTA; chemistry not given here)"
  group.label: "T"
- substance: "Hs_MDS032_1 (TCGAATCATGCCTAAACTCAA; chemistry not given here)"
  group.label: "F"

Now look at this one.
Exercise: A record lists Hs_MAP3K14_5 (CACATGCATGTGACTCCTCAA; chemistry not given here) . Is its Score_si4 below 0.4?
Solution: F

---

Tested on: CHIKV
Assay type: cell-based, chikungunya virus
Fulfilled if Score_si4 is below 0.7. Not fulfilled if not; exact matches included in Not fulfilled.

Solved cases below.
- substance: "s15564 (sense GCTTGAAGCTGAAAAGCGA; chemistry not given here) [reference compound]"
  group.label: "Not fulfilled"
- substance: "s79 (sense CCAGCTATCTATAACCTTA; chemistry not given here)"
  group.label: "Not fulfilled"

Here's the next entry for you.
Exercise: Is Score_si4 of s17592 (GCAACTCTCCTTCACCAAT; chemistry not given here) [reference compound] strictly below 0.7?
Solution: Fulfilled
